Entries and their measured remaining at 10 min, 1 µM follow.
- experimentalProtocol: Stability of compound in mouse liver microsomes assessed as parent compound remaining at 1 uM measured at 10 mins in presence of NADPH
- Assay type: ADME, Microsome
- details: read-out: Stabilty

| entrySmiles | remaining at 10 min, 1 µM |
| --- | --- |
| COc1ccc(Cc2cc([C@@H]3O[C@H](CO)C(F)(F)[C@H](O)[C@H]3O)c(O)cc2Cl)cc1 | 97% |
| OC[C@H]1O[C@@H](c2cc(Cc3cc4ccccc4s3)c(Cl)cc2O)[C@H](O)[C@@H](O)C1(F)F | 106% |
| C[C@]1(F)[C@H](O)[C@@H](O)[C@H](c2cc(Cc3ccc4c(c3)OCCO4)c(Cl)cc2O)O[C@@H]1CO | 96% |
| COc1cc(Cl)c(Cc2cc3ccccc3s2)cc1[C@@H]1O[C@H](CO)C(F)(F)[C@H](O)[C@H]1O | 37% |
| COc1cc(O)c([C@@H]2O[C@H](CO)C(F)(F)[C@H](O)[C@H]2O)cc1Cc1ccc2c(c1)CCO2 | 91% |
| COc1cc(O)c([C@@H]2O[C@H](CO)C(F)(F)[C@H](O)[C@H]2O)cc1Cc1ccc2c(c1)OCCO2 | 97% |
| COc1cc(O)c([C@@H]2O[C@H](CO)[C@@](C)(F)[C@H](O)[C@H]2O)cc1Cc1ccc2c(c1)OCCO2 | 98% |
| COc1cc(O)c([C@@H]2O[C@H](CO)C(F)(F)[C@H](O)[C@H]2O)cc1Cc1ccc2c(c1)CCCO2 | 85% |

* * *

- experimentalProtocol: Oral bioavailability in Sprague-Dawley rat at 10 mg/kg
- Format: ADME, organism-based
- details: in vivo

| entrySmiles | bioavailability (%) |
| --- | --- |
| COc1cc(O)c([C@@H]2O[C@H](CO)C(F)(F)[C@H](O)[C@H]2O)cc1Cc1ccc2c(c1)CCCO2 | 22.3 |
| COc1ccc(Cc2cc([C@@H]3O[C@H](CO)C(F)(F)[C@H](O)[C@H]3O)c(O)cc2Cl)cc1 | 17.4 |
| OC[C@H]1O[C@@H](c2cc(Cc3cc4ccccc4s3)c(Cl)cc2O)[C@H](O)[C@@H](O)C1(F)F | 46.8 |
| COc1cc(O)c([C@@H]2O[C@H](CO)[C@@](C)(F)[C@H](O)[C@H]2O)cc1Cc1ccc2c(c1)OCCO2 | 21.8 |

* * *

- experimentalProtocol: Volume of distribution at steady state in Sprague-Dawley rat at 2 mg/kg, iv or 10 mg/kg, po
- Format: ADME, organism-based
- details: in vivo, read-out: Vdss

| entrySmiles | unitOfMeasurement | Vd |
| --- | --- | --- |
| COc1cc(O)c([C@@H]2O[C@H](CO)C(F)(F)[C@H](O)[C@H]2O)cc1Cc1ccc2c(c1)CCCO2 | L/kg | 3.85 |
| COc1cc(O)c([C@@H]2O[C@H](CO)[C@@](C)(F)[C@H](O)[C@H]2O)cc1Cc1ccc2c(c1)OCCO2 | L/kg | 2.41 |
| COc1ccc(Cc2cc([C@@H]3O[C@H](CO)C(F)(F)[C@H](O)[C@H]3O)c(O)cc2Cl)cc1 | L/kg | 1.89 |
| OC[C@H]1O[C@@H](c2cc(Cc3cc4ccccc4s3)c(Cl)cc2O)[C@H](O)[C@@H](O)C1(F)F | L/kg | 0.91 |

* * *

- experimentalProtocol: Oral bioavailability in C57BL mouse at 20 mg/kg
- Type: ADME, organism-based
- details: in vivo
attributeMeasured: bioavailability (%)

| entrySmiles | attributeMeasured | unitOfMeasurement | valueObserved |
| --- | --- | --- | --- |
| COc1cc(O)c([C@@H]2O[C@H](CO)C(F)(F)[C@H](O)[C@H]2O)cc1Cc1ccc2c(c1)CCCO2 | bioavailability | % | 52.1 |

* * *

- experimentalProtocol: Tmax in Sprague-Dawley rat at 2 mg/kg, iv or 10 mg/kg, po
- Type: ADME, organism-based
- details: in vivo

| entrySmiles | Tmax, min |
| --- | --- |
| OC[C@H]1O[C@@H](c2cc(Cc3cc4ccccc4s3)c(Cl)cc2O)[C@H](O)[C@@H](O)C1(F)F | 18.6 |
| COc1ccc(Cc2cc([C@@H]3O[C@H](CO)C(F)(F)[C@H](O)[C@H]3O)c(O)cc2Cl)cc1 | 25.2 |
| COc1cc(O)c([C@@H]2O[C@H](CO)C(F)(F)[C@H](O)[C@H]2O)cc1Cc1ccc2c(c1)CCCO2 | 15 |
| COc1cc(O)c([C@@H]2O[C@H](CO)[C@@](C)(F)[C@H](O)[C@H]2O)cc1Cc1ccc2c(c1)OCCO2 | 15 |

* * *

Entries and their measured Cmax follow.
- experimentalProtocol: Cmax in Sprague-Dawley rat at 2 mg/kg, iv or 10 mg/kg, po
- Type: ADME, organism-based
- Parameters: dose 10 mg/kg
- details: in vivo

| entrySmiles | Cmax / ng/mL |
| --- | --- |
| OC[C@H]1O[C@@H](c2cc(Cc3cc4ccccc4s3)c(Cl)cc2O)[C@H](O)[C@@H](O)C1(F)F | 5240 |
| COc1cc(O)c([C@@H]2O[C@H](CO)C(F)(F)[C@H](O)[C@H]2O)cc1Cc1ccc2c(c1)CCCO2 | 258 |
| COc1cc(O)c([C@@H]2O[C@H](CO)[C@@](C)(F)[C@H](O)[C@H]2O)cc1Cc1ccc2c(c1)OCCO2 | 274 |
| COc1ccc(Cc2cc([C@@H]3O[C@H](CO)C(F)(F)[C@H](O)[C@H]3O)c(O)cc2Cl)cc1 | 549 |

* * *

Entries and their measured AUC(0-inf) follow.
- experimentalProtocol: AUC (0 to infinity) in Sprague-Dawley rat at 2 mg/kg, iv or 10 mg/kg, po
- Assay type: ADME, organism-based
- Parameters: dose 10 mg/kg
- details: in vivo
attributeMeasured: AUC(0-inf) (ng·h/mL)

| entrySmiles | valueObserved |
| --- | --- |
| OC[C@H]1O[C@@H](c2cc(Cc3cc4ccccc4s3)c(Cl)cc2O)[C@H](O)[C@@H](O)C1(F)F | 18600 |
| COc1cc(O)c([C@@H]2O[C@H](CO)C(F)(F)[C@H](O)[C@H]2O)cc1Cc1ccc2c(c1)CCCO2 | 524 |
| COc1ccc(Cc2cc([C@@H]3O[C@H](CO)C(F)(F)[C@H](O)[C@H]3O)c(O)cc2Cl)cc1 | 2700 |

* * *

- experimentalProtocol: Half life in C57BL mouse at 5 mg/kg, iv
- Type: ADME, organism-based
- details: in vivo

| entrySmiles | half-life |
| --- | --- |
| COc1cc(O)c([C@@H]2O[C@H](CO)C(F)(F)[C@H](O)[C@H]2O)cc1Cc1ccc2c(c1)CCCO2 | 49.8 min |

* * *

- experimentalProtocol: Clearance in C57BL mouse at 5 mg/kg, iv or 20 mg/kg, po
- Format: ADME, organism-based
- details: in vivo

| entrySmiles | clearance |
| --- | --- |
| COc1cc(O)c([C@@H]2O[C@H](CO)C(F)(F)[C@H](O)[C@H]2O)cc1Cc1ccc2c(c1)CCCO2 | 19 mL/min/kg |

* * *

- experimentalProtocol: Tmax in C57BL mouse at 5 mg/kg, iv or 20 mg/kg, po
- Type: ADME, organism-based
- details: in vivo

| entrySmiles | Tmax, h |
| --- | --- |
| COc1cc(O)c([C@@H]2O[C@H](CO)C(F)(F)[C@H](O)[C@H]2O)cc1Cc1ccc2c(c1)CCCO2 | 1 |

* * *

- experimentalProtocol: Volume of distribution at steady state in C57BL mouse at 5 mg/kg, iv or 20 mg/kg, po
- Assay type: ADME, organism-based
- details: in vivo, read-out: Vdss

| entrySmiles | Vd (L/kg) |
| --- | --- |
| COc1cc(O)c([C@@H]2O[C@H](CO)C(F)(F)[C@H](O)[C@H]2O)cc1Cc1ccc2c(c1)CCCO2 | 0.96 |

* * *

- experimentalProtocol: Stability of compound in human liver microsomes assessed as parent compound remaining at 1 uM measured at 10 mins in presence of NADPH
- Assay type: ADME, Microsome
- details: liver microsomes, read-out: Stabilty
Entries and their measured remaining at 10 min, 1 µM follow.
attributeMeasured: remaining at 10 min, 1 µM (%)

| entrySmiles | valueObserved |
| --- | --- |
| OC[C@H]1O[C@@H](c2cc(Cc3ccc4c(c3)OCCO4)c(Cl)cc2O)[C@H](O)[C@@H](O)C1(F)F | 96 |
| COc1cc(O)c([C@@H]2O[C@H](CO)C(F)(F)[C@H](O)[C@H]2O)cc1Cc1ccc2c(c1)CCO2 | 100 |
| COc1cc(O)c([C@@H]2O[C@H](CO)C(F)(F)[C@H](O)[C@H]2O)cc1Cc1ccc2c(c1)OCCO2 | 99 |
| COc1cc(Cl)c(Cc2cc3ccccc3s2)cc1[C@@H]1O[C@H](CO)C(F)(F)[C@H](O)[C@H]1O | 65 |
